- assayed-system: CXCL8-(1-66) truncated monomer (human)
- assay-explanation: NMR titration
test-readout: pKd
For clarity, pKd is expressed as the negative log10 of concentration in mol/L.

Return reported pKd; argument: LWTWFEDEFANATGMPPVEKDYSPCLVVTQTLNK [CXCR1 N-terminal domain peptide]
4.92
